selectivity ratio listing for selected compounds.
# measurement protocol: Selectivity index, ratio of CC50 against African green monkey Vero cells to MIC for Mycobacterium tuberculosis H37Rv
# Type: toxicity
# assay conditions: read-out: Selectivity Index

{"smiles entry": "COc1c(N2C[C@H]3CCCN(Cc4cn(CCCN5C(=O)/C(=N/O)c6cc(C)ccc65)nn4)[C@H]3C2)c(F)cc2c(=O)c(C(=O)O)cn(C3CC3)c12", "selectivity ratio": 5.1}
{"smiles entry": "CO[C@H]1/C=C/O[C@@]2(C)Oc3c(C)c(O)c4c(O)c(c(/C=N/N5CCN(C)CC5)c(O)c4c3C2=O)NC(=O)/C(C)=C\\C=C\\[C@H](C)[C@H](O)[C@@H](C)[C@@H](O)[C@@H](C)[C@H](OC(C)=O)[C@@H]1C", "selectivity ratio": 1310}
{"smiles entry": "COc1c(N2C[C@H]3CCCN(Cc4cn(CCCN5C(=O)C(=O)c6cc(F)ccc65)nn4)[C@H]3C2)c(F)cc2c(=O)c(C(=O)O)cn(C3CC3)c12", "selectivity ratio": 20.5}
{"smiles entry": "COc1c(N2C[C@H]3CCCN(Cc4cn(CCCN5C(=O)C(=O)c6cc(C)ccc65)nn4)[C@H]3C2)c(F)cc2c(=O)c(C(=O)O)cn(C3CC3)c12", "selectivity ratio": 82}
{"smiles entry": "CCO/N=C1/C(=O)N(CCCn2cc(CN3CCC[C@@H]4CN(c5c(F)cc6c(=O)c(C(=O)O)cn(C7CC7)c6c5OC)C[C@@H]43)nn2)c2ccccc21", "selectivity ratio": 41}
{"smiles entry": "CCO/N=C1/C(=O)N(CCCn2cc(CN3CCC[C@@H]4CN(c5c(F)cc6c(=O)c(C(=O)O)cn(C7CC7)c6c5OC)C[C@@H]43)nn2)c2ccc(F)cc21", "selectivity ratio": 20}
{"smiles entry": "COc1c(N2C[C@H]3CCCN(Cc4cn(CCCN5C(=O)/C(=N/O)c6ccccc65)nn4)[C@H]3C2)c(F)cc2c(=O)c(C(=O)O)cn(C3CC3)c12", "selectivity ratio": 10.2}
{"smiles entry": "NNC(=O)c1ccncc1", "selectivity ratio": 2560}
{"smiles entry": "CCO/N=C1/C(=O)N(CCCn2cc(CN3CCC[C@@H]4CN(c5c(F)cc6c(=O)c(C(=O)O)cn(C7CC7)c6c5OC)C[C@@H]43)nn2)c2ccc(C)cc21", "selectivity ratio": 10.2}
{"smiles entry": "CO/N=C1/C(=O)N(CCCn2cc(CN3CCC[C@@H]4CN(c5c(F)cc6c(=O)c(C(=O)O)cn(C7CC7)c6c5OC)C[C@@H]43)nn2)c2ccccc21", "selectivity ratio": 160}
{"smiles entry": "COc1c(N2C[C@H]3CCCN(Cc4cn(CCCN5C(=O)C(=O)c6ccccc65)nn4)[C@H]3C2)c(F)cc2c(=O)c(C(=O)O)cn(C3CC3)c12", "selectivity ratio": 10.2}

###

# measurement protocol: Half life in mouse microsomes
# Format: ADME, Microsome

{"smiles entry": "CO/N=C1/C(=O)N(CCCn2cc(CN3CCC[C@@H]4CN(c5c(F)cc6c(=O)c(C(=O)O)cn(C7CC7)c6c5OC)C[C@@H]43)nn2)c2ccc(F)cc21", "half-life / min": 13.7}

###

# measurement protocol: Elimination half life in ICR mouse at 50 mg/kg, po by HPLC analysis
# Type: ADME, organism-based
# assay conditions: in vivo, read-out: beta t1/2 (converted)

{"smiles entry": "CO/N=C1/C(=O)N(CCCn2cc(CN3CCC[C@@H]4CN(c5c(F)cc6c(=O)c(C(=O)O)cn(C7CC7)c6c5OC)C[C@@H]43)nn2)c2ccc(F)cc21", "half-life / h": 3.87}

###

# measurement protocol: Cytotoxicity against African green monkey Vero cells assessed as reduction in cell viability after 72 hrs by MTT assay
# Type: cell-based
# assay conditions: chlorocebus sabaeus
CC50 at 72 h listing for selected compounds.
property: CC50 at 72 h (µg/mL)

{"smiles entry": "CCO/N=C1/C(=O)N(CCCn2cc(CN3CCC[C@@H]4CN(c5c(F)cc6c(=O)c(C(=O)O)cn(C7CC7)c6c5OC)C[C@@H]43)nn2)c2ccc(F)cc21", "experimental result": 4}
{"smiles entry": "CO[C@H]1/C=C/O[C@@]2(C)Oc3c(C)c(O)c4c(O)c(c(/C=N/N5CCN(C)CC5)c(O)c4c3C2=O)NC(=O)/C(C)=C\\C=C\\[C@H](C)[C@H](O)[C@@H](C)[C@@H](O)[C@@H](C)[C@H](OC(C)=O)[C@@H]1C", "experimental result": 512}
{"smiles entry": "COc1c(N2C[C@H]3CCCN(Cc4cn(CCCN5C(=O)C(=O)c6cc(F)ccc65)nn4)[C@H]3C2)c(F)cc2c(=O)c(C(=O)O)cn(C3CC3)c12", "experimental result": 16}

###

# measurement protocol: Tmax in ICR mouse at 50 mg/kg, po by HPLC analysis
# Type: ADME, organism-based
# assay conditions: in vivo

{"molecule": "COc1c(N2C[C@@H]3CCCN[C@@H]3C2)c(F)cc2c(=O)c(C(=O)O)cn(C3CC3)c12 [MOXIFLOXACIN]", "unit string": "h", "Tmax": 1.08}
{"molecule": "CO/N=C1/C(=O)N(CCCn2cc(CN3CCC[C@@H]4CN(c5c(F)cc6c(=O)c(C(=O)O)cn(C7CC7)c6c5OC)C[C@@H]43)nn2)c2ccc(F)cc21", "unit string": "h", "Tmax": 1.33}

###

# measurement protocol: Selectivity index, ratio of CC50 against African green monkey Vero cells to MIC for Mycobacterium tuberculosis H37Rv
# Format: toxicity
# assay conditions: read-out: Selectivity Index
selectivity ratio listing for selected compounds.
property: selectivity ratio

{"smiles entry": "CO/N=C1/C(=O)N(CCCn2cc(CN3CCC[C@@H]4CN(c5c(F)cc6c(=O)c(C(=O)O)cn(C7CC7)c6c5OC)C[C@@H]43)nn2)c2ccc(C)cc21", "property": "selectivity ratio", "experimental result": 20.5}
{"smiles entry": "COc1c(N2C[C@H]3CCCN(Cc4cn(CCCN5C(=O)/C(=N/O)c6cc(F)ccc65)nn4)[C@H]3C2)c(F)cc2c(=O)c(C(=O)O)cn(C3CC3)c12", "property": "selectivity ratio", "experimental result": 2.6}
{"smiles entry": "CO/N=C1/C(=O)N(CCCn2cc(CN3CCC[C@@H]4CN(c5c(F)cc6c(=O)c(C(=O)O)cn(C7CC7)c6c5OC)C[C@@H]43)nn2)c2ccc(F)cc21", "property": "selectivity ratio", "experimental result": 80}

###

# measurement protocol: Cytotoxicity against African green monkey Vero cells assessed as reduction in cell viability after 72 hrs by MTT assay
# Type: cell-based
# assay conditions: chlorocebus sabaeus
Could you mark each record class 1 if its CC50 at 72 h falls strictly under 8 µg/mL, and class 0 if it equals or exceeds it?

{"smiles entry": "CCO/N=C1/C(=O)N(CCCn2cc(CN3CCC[C@@H]4CN(c5c(F)cc6c(=O)c(C(=O)O)cn(C7CC7)c6c5OC)C[C@@H]43)nn2)c2ccc(C)cc21", "classification": "class 1"}
{"smiles entry": "COc1c(N2C[C@@H]3CCCN[C@@H]3C2)c(F)cc2c(=O)c(C(=O)O)cn(C3CC3)c12", "classification": "class 0"}
{"smiles entry": "COc1c(N2C[C@H]3CCCN(Cc4cn(CCCN5C(=O)C(=O)c6ccccc65)nn4)[C@H]3C2)c(F)cc2c(=O)c(C(=O)O)cn(C3CC3)c12", "classification": "class 0"}
{"smiles entry": "COc1c(N2C[C@H]3CCCN(Cc4cn(CCCN5C(=O)/C(=N/O)c6cc(F)ccc65)nn4)[C@H]3C2)c(F)cc2c(=O)c(C(=O)O)cn(C3CC3)c12", "classification": "class 1"}
